molecular target: T1, Human EphA2 (Ecto) (Human, UniProt P29317 24-537); test: FP competition; competitor Compound 18
T1 construct: extracellular domain
T1 sequence (P29317 24-537): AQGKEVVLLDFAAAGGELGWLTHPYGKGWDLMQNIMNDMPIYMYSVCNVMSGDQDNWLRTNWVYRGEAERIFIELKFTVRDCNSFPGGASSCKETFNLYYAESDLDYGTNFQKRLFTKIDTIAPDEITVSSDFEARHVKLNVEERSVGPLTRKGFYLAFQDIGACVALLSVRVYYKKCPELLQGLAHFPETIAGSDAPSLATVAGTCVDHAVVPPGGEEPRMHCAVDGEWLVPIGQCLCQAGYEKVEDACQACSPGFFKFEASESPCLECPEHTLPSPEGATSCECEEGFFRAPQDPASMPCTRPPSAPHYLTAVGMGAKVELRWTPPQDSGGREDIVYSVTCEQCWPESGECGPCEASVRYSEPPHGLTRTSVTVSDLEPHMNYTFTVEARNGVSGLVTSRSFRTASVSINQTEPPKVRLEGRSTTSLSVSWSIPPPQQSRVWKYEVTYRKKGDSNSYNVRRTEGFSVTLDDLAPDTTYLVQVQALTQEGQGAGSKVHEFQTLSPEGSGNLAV
pKi: −log10 of the molar value. Numbered stars: 1 amine (or outer) side, 2 acyl side, 3 side chain; on linkers, the order of the positions; unused ones are H or OH. Bridge positions count the residues as written; N and C are the ends. Square brackets hold non-standard residues; d marks the D form. Ends that are not written are not given here. 1Nal = N[C@@H](Cc1cccc2ccccc12)C(=O)O; TBMB = c1c(C[*:1])cc(C[*:3])cc1C[*:2]; Ala(cPr) = N[C@@H](CC1CC1)C(=O)O; hArg = N=C(N)NCCCC[C@H](N)C(=O)O; Cba = N[C@@H](CC1CCC1)C(=O)O; Tle = CC(C)(C)[C@H](N)C(=O)O; Aib = CC(C)(N)C(=O)O; Sar = CNCC(=O)O
Hi, to clarify the labels: True covers pKi from 9 upward, False covers anything below 9.

Solved entries (count: 2):
> print(dat)
                                     binder  class.name
1  ADVHCPWG[Aib]FWCPVNRPGCA (linker 5-12-19 via TBMB) [Compound 153]        True
2  [Sar][Sar]ACP[1Nal]GPFWCP[Tle]NRP[dA]C (linker 4-11-18 via TBMB) [Compound 132]       False

IN: Entry AHDVPCP[1Nal]GPFWCPVNRPGCA (linker 6-13-20 via TBMB) [Compound 187] : is its pKi no less than 9?
OUT: True

IN: Entry Ac-[Sar][Sar]A[dD]VTCPWGPAWCPVNRPGC (linker 7-14-21 via TBMB) [Compound 173] : is its pKi no less than 9?
OUT: False

IN: Entry [Sar][Sar]AHD[Tle]PCPWGPFWCPVNRPGC (linker 8-15-22 via TBMB) [Compound 217] : is its pKi no less than 9?
OUT: True

IN: Entry Ac-[Sar][Sar]A[dH]DVPCPWGPFWCP[hArg]NRPGC (linker 8-15-22 via TBMB) [Compound 229] : is its pKi no less than 9?
OUT: False

IN: Entry Ac-[Sar][Sar]A[dD][Ala(cPr)]TCPWGPFWCPVNRPGC (linker 7-14-21 via TBMB) [Compound 161] : is its pKi no less than 9?
OUT: False

IN: Entry Ac-[Sar][Sar]A[dD][Cba]TCPWGPFWCPVNRPGC (linker 7-14-21 via TBMB) [Compound 160] : is its pKi no less than 9?
OUT: False

Values from patent US20200338203A1
